# Bmax per entry
Tested Target: T1, Cynomolgus monkey serum albumin (CSA) (cynomolgus monkey, UniProt A2V9Z4 25-608)
T1 construct: Bought protein (Abcam); also called cynomolgus monkey albumin
T1 sequence (A2V9Z4 25-608): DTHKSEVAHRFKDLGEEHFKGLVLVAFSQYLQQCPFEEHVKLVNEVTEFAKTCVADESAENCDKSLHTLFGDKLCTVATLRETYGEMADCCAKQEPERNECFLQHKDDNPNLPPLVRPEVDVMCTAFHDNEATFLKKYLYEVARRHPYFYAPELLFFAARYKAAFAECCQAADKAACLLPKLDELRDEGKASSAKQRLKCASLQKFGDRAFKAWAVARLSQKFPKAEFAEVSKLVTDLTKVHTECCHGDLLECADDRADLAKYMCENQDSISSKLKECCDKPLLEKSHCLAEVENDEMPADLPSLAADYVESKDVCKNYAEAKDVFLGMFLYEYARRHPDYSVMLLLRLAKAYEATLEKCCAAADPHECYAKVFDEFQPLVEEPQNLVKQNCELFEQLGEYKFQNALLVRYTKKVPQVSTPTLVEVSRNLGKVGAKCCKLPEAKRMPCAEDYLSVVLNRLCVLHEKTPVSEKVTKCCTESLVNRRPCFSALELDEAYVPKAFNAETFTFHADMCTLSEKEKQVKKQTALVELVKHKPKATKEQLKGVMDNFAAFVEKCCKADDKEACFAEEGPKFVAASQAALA
Assay Details: ELISA on coated cynomolgus monkey albumin, anti-human Fc HRP, A650, one site-total binding fit
Only the number, expressed in A650, is required.

QUERY: Any idea what its Bmax is? The binder is 4A01v3-5 (Fc fusion, also called Hz4A01v3-5; not shown: Human Fc carrier and its linker) VHH: EVQLVESGGGEVQPGGSLRLSCAASGFAFSTSGMVWYRQAPGKGLEWVSTISDDARIIRYAESVKGRFTISRDNAKNTLYLQMNSLRAEDTAVYYCATYRAGSRIGSYEDYYRGQGTLVTVKP
RESULT: 1.34

QUERY: 4A01v3-4 (Fc fusion, also called Hz4A01v3-4; not shown: Human Fc carrier and its linker) VHH: EVQLVESGGGEVQPGGSLRLSCAASGFAFSTSGMSWVRQAPGKGLEWVSTISDDARIIRYAESVKGRFTISRDNAKNTLYLQMNSLRAEDTAVYYCATYRAGSRIGSYEDYYRGQGTLVTVKP , same question.
RESULT: 1.37

QUERY: 4A01v1 (Fc fusion, also called Hz4A01v1; not shown: Human Fc carrier and its linker) VHH: EVQLVESGGGEVQPGGSLRLSCAASGFAFSTSGMVWVRQAPGKGLEWVSTISDDSRIIRYAESVKGRFTISRDNAKNTLYLQMNSLRAEDTAVYYCATYRAGSRIGSYEDYYRGQGTLVTVKP , same question.
RESULT: 1.31

QUERY: 4A01v3-7 (Fc fusion, also called Hz4A01v3-7; not shown: Human Fc carrier and its linker) VHH: EVQLVESGGGEVQPGGSLRLSCAASGFAFSTSGMVWVRQAPGKGLEWVSTISDDARIIRYAESVKGRFTISRDNAKNTVYLQMNSLRAEDTAVYYCATYRAGSRIGSYEDYYRGQGTLVTVKP , same question.
RESULT: 1.31

QUERY: 4A01v9 (Fc fusion, not shown: a dimerising Fc or GST; small tags and cut ends, also called Hz4A01v9) VHH: EVQLVESGGGEVQPGGSLRLSCAASGFAFSTSGMVWVRQAPGKGLEWVSTISDDTRIIRYAESVKGRFTISRDNAKNTLYLQMNSLRAEDTAVYYCATYRAGSRIGSYEDYYRGQGTLVTVKP , same question.
RESULT: 1.29
